Target: human GLP-1 receptor (human, UniProt P43220 24-463)
Assay: cell-based or functional assay
This section presents binders with their documented GLP-1 receptor potency [EC50] pM 1% HSA values.
reportedProperty: GLP-1 receptor potency [EC50] pM 1% HSA

binder | reportedProperty | measurement
S{Beta-27}-[2-[2-[[2-[2-[2-[[2-[2-[2-[[(4S)-4-carboxy-4-(17-carboxyheptadecanoyl-amino)butanoyl]amino]ethoxy]ethoxy]acetyl]amino]ethoxy]ethoxy]acetyl]amino]-eth … (ligand, Cys27 of the GLP-1 part (GLP-1(7-37) numbering; residue 21 of the chain) and Cys180 of the FGF21 part (FGF21(1-181) numbering; residue 228 of the chain) each S-alkylated with substituent Chem. 7) HGEGTFTSDVSSYLEEQAAKCFIAWLVKGGGGAQPGAQPGAQPGAQPAHPIPDSSPLLQFGGQVRQRYLYTDDAQQTEAHLEIREDGTVGGAADQSPESLLQLKALKPGVIQILGVKTSRFLCQRPDGALYGSLHFDPEACSFRELLLEDGYNVYQSEAHGLPLHLPGQKSPHRDPAPRGPARFLPLPGLPPALPEPPGILAPQPPDVGSSDPLSLVGPSQGRSPSYCS | GLP-1 receptor potency [EC50] pM 1% HSA | 391 pM
S{Beta-27}-[2-[2-[[2-[2-[2-[[2-[2-[2-[[(4S)-4-carboxy-4-(17-carboxyheptadecanoyl-amino)butanoyl]amino]ethoxy]ethoxy]acetyl]amino]ethoxy]ethoxy]acetyl]amino]-eth … (ligand, Cys27 of the GLP-1 part (GLP-1(7-37) numbering; residue 21 of the chain) S-alkylated with substituent Chem. 7) HGEGTFTSDVSSYLEEQAAKCFIAWLVKGGGGAQPGAQPGAQPGAQPAHPIPDSSPLLQFGGQVRQRYLYTDDAQQTEAHLEIREDGTVGGAADQSPESLLQLKALKPGVIQILGVKTSRFLCQRPDGALYGSLHFDPEACSFRELLLEDGYNVYQSEAHGLPLHLPGQKSPHRDPAPRGPARFLPLPGLPPALPEPPGILAPQPPDVGSSDPLSLVGGSQGRSPSYES | GLP-1 receptor potency [EC50] pM 1% HSA | 78.7 pM
S{Beta-27}-[2-[2-[[2-[2-[2-[[2-[2-[2-[[(4S)-4-carboxy-4-(17-carboxyheptadecanoyl-amino)butanoyl]amino]ethoxy]ethoxy]acetyl]amino]ethoxy]ethoxy]acetyl]amino]-eth … (ligand, Cys27 of the GLP-1 part (GLP-1(7-37) numbering; residue 21 of the chain) and Cys180 of the FGF21 part (FGF21(1-181) numbering; residue 228 of the chain) each S-alkylated with substituent Chem. 7) HGEGTFTSDVSSYLEEQAARCFIAWLVKGGGGAQPGAQPGAQPGAQPAHPIPDSSPLLQFGGQVRQRYLYTDDAQQTEAHLEIREDGTVGGAADQSPESLLQLKALKPGVIQILGVKTSRFLCQRPDGALYGSLHFDPEACSFRELLLEDGYNVYQSEAHGLPLHLPGQKSPHRDPAPRGPARFLPLPGLPPALPEPPGILAPQPPDVGSSDPLSLVGPSQGRSPSYCS | GLP-1 receptor potency [EC50] pM 1% HSA | 389 pM
